Give measured GI50 for each item. Keep answers brief.
# Tested on: HT29 cells
# experimental-protocol: In vitro cytotoxicity / cell growth inhibition, colon cancer
# Assay type: cell-based
# condition-label: Homo sapiens, HT-29, 48 hr, read-out: log10 G150 (converted)

The compound CC1CN1CCCNCCCCNCCCN1CC1C (stereo not shown) [Synthesis Example 4] showed GI50 equal to 20.4 µM

The recorded GI50 for entry CC(CCNCCCCNCCC(C)N1CC1)N1CC1 (stereo not shown) [Synthesis Example 3, 2,13-Diaziridinyl-5,10-diazatetradecane] equals 20 µM

get_value(item= C(CNCCCN1CC1)CNCCCN1CC1 [Synthesis Example 2, 1,11-Diaziridinyl-4,8-diazaundecane] , readout=GI50) returns 18.6 µM

What the record says about C(CCNCCCN1CC1)CNCCCN1CC1 [Synthesis Example 1, 1,12-Diaziridinyl-4,9-diazadodecane] : GI50 is 3.63 µM
